System: Jurkat (clone E6-1) cells with NFAT luciferase reporter
Method: Jurkat reporter assay (NFAT Luciferase)
Format: cell-based
Test context: Homo sapiens; Jurkat NFAT luciferase reporter cells, anti-CD3 stimulation, 6 hr; read-out: Jurkat NFAT EC50
Parameter: EC50

Some molecules with recorded EC50:
[
  {
    "Molecule": "COC[C@H](C)NCc1cc(F)c2oc(-c3cc(-c4ccc(F)cc4-c4nncn4C)cc(C4CC4)n3)nc2c1 [AFU-1]",
    "EC50": "< 200 nM"
  },
  {
    "Molecule": "Cc1c(F)c(CN[C@@H]2CCC[C@@H]2O)cc2nc(-c3cc(-c4ccc(F)cc4-c4nncn4C)cc(C4CC4)n3)oc12 [AGQ-2]",
    "EC50": "< 200 nM"
  },
  {
    "Molecule": "CCNc1cc(-c2ccccc2-c2nncn2C)cc(-c2nc3cc(CN4CCC5(CC5)C4)cc(C(F)(F)F)c3[nH]2)n1 [AAG-4]",
    "EC50": "1000 to 10000 nM"
  },
  {
    "Molecule": "COc1cc(CNCC2CC2)cc2nc(-c3cccc(-c4ccc(F)cc4-c4nncn4C)c3)oc12 [FU-1]",
    "EC50": "200 to 1000 nM"
  },
  {
    "Molecule": "COCCNCc1cc2nc(-c3cccc(-c4ccc(F)cc4-c4nncn4C)c3)oc2c(F)c1F [IY-1]",
    "EC50": "< 200 nM"
  },
  {
    "Molecule": "COc1cc(CNC[C@@H]2CCCO2)cc2nc(-c3cccc(-c4ccc(F)cc4-c4nncn4C)c3)oc12 [FS-2]",
    "EC50": "< 200 nM"
  }
]

Per the record, CO[C@H]1CCC[C@H]1N(C)Cc1cc(C(F)(F)F)c2oc(-c3cccc(-c4ccc(F)cc4-c4nncn4C)c3)nc2c1 [CN-5] has EC50 of 200 to 1000 nM

Per the record, CCNCc1cc2nc(-c3cc(-c4ccc(F)cc4-c4nncn4C)cc(C4CC4)n3)oc2c(F)c1F [AGZ-2] has EC50 of 200 to 1000 nM

Per the record, COC[C@@H](C)NCc1cc(C)c2oc(-c3cc(-c4ccc(F)cc4-c4nncn4C)cc(C4CC4)n3)nc2c1 [AGL-1] has EC50 of 200 to 1000 nM

Per the record, CC(=O)NCCNCc1cc(C(F)(F)F)c2oc(-c3cccc(-c4ccc(F)cc4-c4nncn4C)c3)nc2c1 [HD-2] has EC50 of 200 to 1000 nM

Per the record, Cc1cc(CNCC2CCC2)cc2nc(-c3cc(-c4ccc(F)cc4-c4nncn4C)cc(C4CC4)n3)oc12 [AFF-1] has EC50 of < 200 nM

* * *

System: Recombinant human c-Cbl (aa 47-435) (Homo sapiens)
Sequence (P22681 47-435): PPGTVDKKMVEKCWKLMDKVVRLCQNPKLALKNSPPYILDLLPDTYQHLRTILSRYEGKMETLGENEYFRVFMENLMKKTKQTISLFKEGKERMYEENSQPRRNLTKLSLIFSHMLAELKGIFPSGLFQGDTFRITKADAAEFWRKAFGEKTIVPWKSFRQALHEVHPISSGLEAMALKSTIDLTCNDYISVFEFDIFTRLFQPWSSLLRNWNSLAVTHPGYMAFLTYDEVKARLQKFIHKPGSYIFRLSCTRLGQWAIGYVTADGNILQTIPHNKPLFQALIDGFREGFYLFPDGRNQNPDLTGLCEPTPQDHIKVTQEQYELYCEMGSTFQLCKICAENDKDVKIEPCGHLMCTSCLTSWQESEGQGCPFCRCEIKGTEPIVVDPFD
Method: c-Cbl Biochemical Assay (TR-FRET)
Test context: hc-Cbl Biochemical Assay (TR-FRET); read-out: TR-FRET hcCbl IC50
Parameter: IC50

Some molecules with recorded IC50:
[
  {
    "Molecule": "Cn1cnnc1-c1cc(F)ccc1-c1cccc(-c2nc3cc([C@H](CO)N4CCC4)cc(C(F)(F)F)c3o2)c1 (single isomer, unassigned) [DO-6]",
    "IC50": "200 to 1000 nM"
  },
  {
    "Molecule": "Cc1cc([C@H](C)NCC2CCC2)cc2nc(-c3cc(-c4ccc(F)cc4-c4nncn4C)cc(C4CC4)n3)oc12 [AGX-1]",
    "IC50": "< 200 nM"
  },
  {
    "Molecule": "CO[C@H]1CCN(Cc2cc(C(F)(F)F)c3oc(-c4cccc(-c5ccc(F)cc5-c5nncn5C)c4)nc3c2)C1 [AB-2]",
    "IC50": "1000 to 10000 nM"
  }
]

Continue with the next molecule.
Per the record, Cn1cnnc1-c1cc(F)ccc1-c1cc(-c2nc3cc(C4(N)CC4)cc(F)c3o2)nc(C2CC2)c1 [AGN-3] has IC50 of 200 to 1000 nM

* * *

Tested on: Jurkat (clone E6-1) cells with NFAT luciferase reporter
Method: Jurkat reporter assay (NFAT Luciferase)
Format: cell-based
Test context: Homo sapiens; Jurkat NFAT luciferase reporter cells, anti-CD3 stimulation, 6 hr; read-out: Jurkat NFAT EC50
pEC50: −log10 of the molar value.
Parameter: pEC50

[
  {
    "Molecule": "Cn1cnnc1-c1cc(F)ccc1-c1cccc(-c2nc3cc(CNCC(C)(C)O)cc(F)c3o2)c1 [JN-1]",
    "Parameter": "pEC50",
    "Endpoint value": "> 6.70"
  },
  {
    "Molecule": "Cn1cnnc1-c1cc(F)ccc1-c1cccc(-c2cn3cc(CN[C@@H]4CCC[C@@H]4O)ccc3n2)c1 [GL-2]",
    "Parameter": "pEC50",
    "Endpoint value": "4.30 to 5.00"
  },
  {
    "Molecule": "Cn1cnnc1-c1cc(F)ccc1-c1cc(-c2nc3cc(CO)cc(F)c3o2)nc(C2CC2)c1 [AFA-2]",
    "Parameter": "pEC50",
    "Endpoint value": "5.00 to 6.00"
  },
  {
    "Molecule": "COCCNCc1cc(C(F)(F)F)c2oc(-c3cc(-c4ccc(F)cc4-c4nncn4C)cc(C4CC4)c3)nc2c1 [JT-1]",
    "Parameter": "pEC50",
    "Endpoint value": "> 6.70"
  },
  {
    "Molecule": "COCCN(C)Cc1cc(OC)c2oc(-c3cccc(-c4ccc(F)cc4-c4nncn4C)c3)nc2c1 [GM-2]",
    "Parameter": "pEC50",
    "Endpoint value": "4.30 to 5.00"
  }
]

Per the record, Cn1cnnc1-c1cc(F)ccc1-c1cccc(-c2nc3cc(CNCC4(O)CCC4)c(F)c(F)c3o2)c1 [IW-1] has pEC50 of > 6.70

Per the record, COCCNCc1cc(C)c2oc(-c3cccc(-c4ccc(F)cc4-c4nncn4C)c3)nc2c1 [GV-1] has pEC50 of 6.00 to 6.70

Per the record, CO[C@H]1CCN(Cc2cc(C(F)(F)F)c3oc(-c4cccc(-c5ccc(F)cc5-c5nncn5C)c4)nc3c2)C1 [AB-2] has pEC50 of 5.00 to 6.00

* * *

Tested on: Jurkat (clone E6-1) cells with NFAT luciferase reporter
Method: Jurkat reporter assay (NFAT Luciferase)
Assay type: cell-based
Test context: Homo sapiens; Jurkat NFAT luciferase reporter cells, anti-CD3 stimulation, 6 hr; read-out: Jurkat NFAT EC50
Parameter: EC50

[
  {
    "Compound": "[2H]C([2H])(N[C@@H]1CCC[C@@H]1O)c1cc(C(F)(F)F)c2oc(-c3cccc(-c4ccc(F)cc4-c4nncn4C)c3)nc2c1",
    "Parameter": "EC50",
    "Endpoint value": "< 200 nM"
  },
  {
    "Compound": "Cn1cnnc1-c1cc(F)ccc1-c1cccc(-c2nc3cc(CNCC4CC4)cc(C(F)(F)F)c3o2)c1",
    "Parameter": "EC50",
    "Endpoint value": "< 200 nM"
  },
  {
    "Compound": "CO[C@H]1CCCC1NCc1cc(C(F)(F)F)c2oc(-c3cccc(-c4ccc(F)cc4-c4nncn4C)c3)nc2c1 (stereo in doubt)",
    "Parameter": "EC50",
    "Endpoint value": "200 to 1000 nM"
  },
  {
    "Compound": "Cn1cnnc1-c1cc(F)ccc1-c1cc(-c2nc3cc(CNCC(C)(C)O)ccc3o2)nc(C2CC2)c1",
    "Parameter": "EC50",
    "Endpoint value": "< 200 nM"
  },
  {
    "Compound": "Cn1cnnc1-c1cc(F)ccc1-c1cccc(-c2nc3cc(NCCN4CC(F)(F)C4)cc(C(F)(F)F)c3o2)c1",
    "Parameter": "EC50",
    "Endpoint value": "1000 to 10000 nM"
  }
]

Per the record, CN(Cc1cc(C(F)(F)F)c2oc(-c3cccc(-c4ccc(F)cc4-c4nncn4C)c3)nc2c1)CC(C)(C)O has EC50 of 200 to 1000 nM

Per the record, Cn1cnnc1-c1cc(F)ccc1-c1cccc(-c2nc3cc(CN[C@]4(C)CCC[C@@H]4O)cc(C(F)(F)F)c3o2)c1 (racemic) has EC50 of < 200 nM

* * *

System: Recombinant human Cbl-b (aa 36-427) (Homo sapiens, UniProt Q13191)
Sequence (Q13191 36-427): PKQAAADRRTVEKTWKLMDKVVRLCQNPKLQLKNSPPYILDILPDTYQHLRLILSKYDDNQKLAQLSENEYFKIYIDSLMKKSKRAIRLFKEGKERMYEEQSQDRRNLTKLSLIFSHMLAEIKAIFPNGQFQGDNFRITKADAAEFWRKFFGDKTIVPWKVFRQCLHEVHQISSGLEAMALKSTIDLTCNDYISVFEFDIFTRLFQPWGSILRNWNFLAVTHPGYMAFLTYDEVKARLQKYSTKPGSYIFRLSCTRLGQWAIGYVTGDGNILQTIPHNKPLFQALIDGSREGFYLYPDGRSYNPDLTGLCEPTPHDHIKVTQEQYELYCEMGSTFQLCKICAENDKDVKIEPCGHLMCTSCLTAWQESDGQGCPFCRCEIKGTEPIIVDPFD
Method: Cbl-b Biochemical Assay (TR-FRET)
Test context: read-out: TR-FRET hCbl-b IC50
pIC50: −log10 of the molar value.
Parameter: pIC50

Some compounds with recorded pIC50:
[
  {
    "Mol smiles": "Cn1cnnc1-c1cc(F)ccc1-c1cccc(-c2nc3cc(CNCCF)cc(C(F)(F)F)c3o2)c1",
    "System": "Recombinant human Cbl-b (aa 36-427) (Homo sapiens, UniProt Q13191)",
    "pIC50": "> 6.70"
  },
  {
    "Mol smiles": "Cn1cnnc1CC1(c2cccc(-c3nc4cccc(C(F)(F)F)c4s3)c2)COC1",
    "System": "Recombinant human Cbl-b (aa 36-427) (Homo sapiens, UniProt Q13191)",
    "pIC50": "5.00 to 6.00"
  },
  {
    "Mol smiles": "C[C@@H]1CCCN(Cc2cc(C(F)(F)F)c3oc(-c4cc(-c5ccccc5-c5nncn5C)cc(C5CC5)n4)nc3c2)C1",
    "System": "Recombinant human Cbl-b (aa 36-427) (Homo sapiens, UniProt Q13191)",
    "pIC50": "6.00 to 6.70"
  }
]

Continue with the next compound.
Per the record, COc1cc(CNCC2COC2)cc2nc(-c3cccc(-c4ccc(F)cc4-c4nncn4C)c3)oc12 has pIC50 of > 6.70

Values were extracted from patent US20250163038A1.
